meta.source: paper PMC10518421

measured on: M28FCK1δ (rat) (Rattus norvegicus, UniProt Q06486, M82F)
Sequence (Q06486 whole entry M82F): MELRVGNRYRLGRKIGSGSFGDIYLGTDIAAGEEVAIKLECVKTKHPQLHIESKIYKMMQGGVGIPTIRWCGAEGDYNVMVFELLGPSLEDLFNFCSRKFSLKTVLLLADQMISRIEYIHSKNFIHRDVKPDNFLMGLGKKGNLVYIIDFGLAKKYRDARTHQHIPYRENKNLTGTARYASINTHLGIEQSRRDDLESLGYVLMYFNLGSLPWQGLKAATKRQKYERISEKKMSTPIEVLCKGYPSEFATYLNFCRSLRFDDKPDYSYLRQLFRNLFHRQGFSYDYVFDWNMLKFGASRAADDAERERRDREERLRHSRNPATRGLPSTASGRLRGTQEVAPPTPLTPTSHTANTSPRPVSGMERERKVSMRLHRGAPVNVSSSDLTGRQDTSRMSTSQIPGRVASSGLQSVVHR
test name: initial IC50 determination in in vitro kinase assays, prior to standardization
Type: biochemical
recorded metric: IC50 (µM)
Dear colleague, please return just the value in µM, with no unit written.

Quick check: IC50 of CC(C)n1c(SCC(=O)Nc2nc3ccc(C(F)(F)F)cc3s2)nc2c(c1=O)SCC2 [G1-5] ?
0.12

---

measured on: M28FCK1δ (rat) (Rattus norvegicus, UniProt Q06486, M82F)
test name: initial IC50 determination in in vitro kinase assays, prior to standardization
Format: biochemical
stated conditions: prior to standardization, not published; read-out: IC50 values M28FCK1δ (rat)
recorded metric: pIC50
// scale note: pIC50 = -log10(conc_M); give the bare number

Quick check: pIC50 of `COc1cc(Cn2c(SCC(=O)Nc3nc4ccc(C(F)(F)F)cc4s3)nc3c(c2=O)SCC3)cc(OC)c1` ?
6.80

---

measured on: His-DrCK1δB (Danio rerio, UniProt Q6P3K7)
Sequence (Q6P3K7 1-409): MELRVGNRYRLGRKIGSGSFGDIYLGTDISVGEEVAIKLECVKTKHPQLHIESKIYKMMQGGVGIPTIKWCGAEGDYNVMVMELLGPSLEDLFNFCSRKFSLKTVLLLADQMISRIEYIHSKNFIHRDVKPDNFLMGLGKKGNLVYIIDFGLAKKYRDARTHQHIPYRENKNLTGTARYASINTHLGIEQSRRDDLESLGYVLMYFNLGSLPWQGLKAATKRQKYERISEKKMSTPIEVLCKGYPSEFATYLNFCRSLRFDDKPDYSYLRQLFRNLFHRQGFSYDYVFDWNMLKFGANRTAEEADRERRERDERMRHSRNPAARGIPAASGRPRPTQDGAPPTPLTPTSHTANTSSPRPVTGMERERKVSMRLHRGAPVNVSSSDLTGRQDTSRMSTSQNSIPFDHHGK
recorded metric: Ki (nM)
Dear colleague, please return just the value in nM, with no unit written.

Quick check: Ki of `O=C(CSc1nccc(=O)n1Cc1ccc(C(F)(F)F)cc1)Nc1nc2ccc(C(F)(F)F)cc2s1` ?
135

---

Parameter 'readout' = pIC50; parameter 'system' = CK1δ (rat) (Rattus norvegicus, UniProt Q06486).
Sequence (Q06486 whole entry): as the sequence (Q06486 whole entry M82F) above, with F82M counted along it
// scale note: pIC50 = -log10(conc_M); give the bare number

compound smiles: COc1cc(Cn2c(SCC(=O)Nc3nc4ccc(C(F)(F)F)cc4s3)nc3c(c2=O)SCC3)cc(OC)c1
pIC50: 6.42

Now look at this one.
Observed pIC50 on CK1δ (rat) (Rattus norvegicus, UniProt Q06486) for `CC(C)n1c(SCC(=O)Nc2nc3ccc(C(F)(F)F)cc3s2)nc2c(c1=O)SCC2` , please.
6.80

---

measured on: UniProtKB Q7T2E3
Sequence (Q7T2E3 whole entry): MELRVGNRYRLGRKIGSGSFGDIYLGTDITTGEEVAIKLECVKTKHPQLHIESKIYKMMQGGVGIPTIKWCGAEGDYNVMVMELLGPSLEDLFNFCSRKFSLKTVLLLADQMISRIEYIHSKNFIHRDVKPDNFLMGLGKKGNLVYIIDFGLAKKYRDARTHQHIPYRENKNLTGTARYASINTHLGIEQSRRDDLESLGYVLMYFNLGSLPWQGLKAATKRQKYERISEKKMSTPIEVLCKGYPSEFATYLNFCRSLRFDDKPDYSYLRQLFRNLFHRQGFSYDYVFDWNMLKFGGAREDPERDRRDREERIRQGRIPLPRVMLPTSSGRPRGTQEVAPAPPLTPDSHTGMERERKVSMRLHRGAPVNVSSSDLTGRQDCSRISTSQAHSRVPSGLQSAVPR
recorded metric: Ki
Write the numeric value and follow it with the unit.

Observed Ki on UniProtKB Q7T2E3 for O=C(CSc1nccc(=O)n1Cc1ccc(C(F)(F)F)cc1)Nc1nc2ccc(C(F)(F)F)cc2s1 [G2-2] , please.
173 nM

---

measured on: CK1δ (TV2) (Homo sapiens)
Sequence (P48730 1-409 isoform P48730-2): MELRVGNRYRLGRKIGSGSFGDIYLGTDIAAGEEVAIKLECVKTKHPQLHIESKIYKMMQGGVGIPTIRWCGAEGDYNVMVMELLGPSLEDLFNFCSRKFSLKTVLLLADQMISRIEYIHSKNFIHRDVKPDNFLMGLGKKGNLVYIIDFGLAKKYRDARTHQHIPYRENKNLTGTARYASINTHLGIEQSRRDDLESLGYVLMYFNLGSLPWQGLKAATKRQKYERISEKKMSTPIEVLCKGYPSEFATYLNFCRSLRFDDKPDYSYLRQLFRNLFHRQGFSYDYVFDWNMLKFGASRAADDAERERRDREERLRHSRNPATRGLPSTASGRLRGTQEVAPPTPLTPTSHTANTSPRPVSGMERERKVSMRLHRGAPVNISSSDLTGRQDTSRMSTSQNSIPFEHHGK
test name: initial IC50 determination in in vitro kinase assays, prior to standardization
Assay type: biochemical
stated conditions: not published
recorded metric: pIC50
// scale note: pIC50 = -log10(conc_M); give the bare number

Quick check: pIC50 of CC(C)n1c(SCC(=O)Nc2nc3ccc(C(F)(F)F)cc3s2)nc2c(c1=O)SCC2 [G1-5] ?
6.29
